# Organism: Rattus norvegicus
# Protocol Description: DrugMatrix - Regimen: Daily Repeat
# Assay type: toxicity, organism-based, Sprague-Dawley
# Design: regimen Daily Repeat, gender Male, age 6-8 weeks
# Measurement Context: in vivo, po, 0 mg/kg, 72 h, tissue Blood, route oral GAVAGE, dose level Control, time 3 day, vehicle .5 % CMC
Result Type: MEAN CORPUSCULAR VOLUME (fL)
Give your result in fL as a bare value.

Observe how each entry below is paired with its result.
INSERT INTO assay_data (compound, reading) VALUES
  ('O=C1c2ccccc2C(=O)C1c1ccccc1', 63.66),
  ('CN(C)CCC=C1c2ccccc2COc2ccccc21 [DOXEPIN]', 61.48),
  ('CCN1CCN(c2cc3c(cc2F)c(=O)c(C(=O)O)cn3C2CC2)CC1', 58.52),
  ('CC(C)(C#N)c1cc(Cn2cncn2)cc(C(C)(C)C#N)c1', 63.88),
  ('O=C(O)CCc1nc(-c2ccccc2)c(-c2ccccc2)o1', 63.52);

(Q) Please list MEAN CORPUSCULAR VOLUME recorded for the compound Nc1ccc(C(=O)O)c(O)c1
(A) 59.45

---

# Organism: Rattus norvegicus
# Protocol Description: DrugMatrix - Regimen: Daily Repeat
# Format: toxicity, organism-based, Sprague-Dawley
# Parameters: regimen Daily Repeat, gender Male, age 6-8 weeks
# Measurement Context: in vivo, po, 0 mg/kg, 72 h, tissue Blood, route oral GAVAGE, dose level Control, time 3 day, vehicle 100 % WATER
The following molecules are shown together with reported ERYTHROCYTE COUNT values.
Give your result in x10E6/uL as a bare value.

Observe how each entry below is paired with its result.
INSERT INTO results (molecule, value_units, reading) VALUES
  ('C1CCN2C[C@@H]3C[C@@H](CN4CCCC[C@@H]34)[C@H]2C1 [SPARTEINE]', 'x10E6/uL', 5.57),
  ('CCC1(c2ccccc2)C(=O)NC(=O)NC1=O [PHENOBARBITAL]', 'x10E6/uL', 5.38),
  ('NN [HYDRAZINE]', 'x10E6/uL', 5.46),
  ('CC(Cl)(Cl)Cl [TRICHLOROETHANE]', 'x10E6/uL', 5.57),
  ('CN1C(=O)OC(C)(C)C1=O [TRIMETHADIONE]', 'x10E6/uL', 5.8);

Lab note: next molecule to report on.
(Q) Please list ERYTHROCYTE COUNT recorded for the molecule Cc1cn([C@H]2C=C[C@@H](CO)O2)c(=O)[nH]c1=O [STAVUDINE]
(A) 5.49

---

# Species on record: Rattus norvegicus
# Protocol Description: DrugMatrix - Regimen: Daily Repeat
# Format: toxicity, organism-based, Sprague-Dawley
# Set-up: regimen Daily Repeat, gender Male, age 6-8 weeks
# Measurement Context: in vivo, po, 0 mg/kg, 72 h, tissue Plasma, route oral GAVAGE, dose level Control, time 3 day, vehicle 100 % WATER
Mark not fulfilled for ALBUMIN values under 4 G/DL, and fulfilled for everything at or above.

INSERT INTO results (molecule, label) VALUES
  ('Cc1cc(C(C)(C)C)c(O)c(C)c1CC1=NCCN1 [OXYMETAZOLINE]', 'not fulfilled'),
  ('CN1C(=O)OC(C)(C)C1=O [TRIMETHADIONE]', 'not fulfilled');

(Q) Is ALBUMIN for CCN(CC)C(=S)SSC(=S)N(CC)CC at or above 4 G/DL?
(A) fulfilled
